# method_notes: chemical genetic growth profiling, strain panel (AID 1159580);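 also: tested at 20 µM; growth read once vehicle control cultures reached saturation at 30 °C; lower values mean less growth of the strain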
# recorded_conditions: S. cerevisiae deletion strains, growth OD, locus YHR082C, strain KSP1
The whole screen tested about 5,500 compounds, of which about 2,000 (36%) were called active. Roughly 18% stayed inconclusive and do not appear here. Rule as the data show it: active = normalized growth mostly below about 0.91 (no sharp cut-off); inconclusive = no clear call, values can overlap the other calls; inactive = mostly above about 0.92. This is one part of the list.
Outcome codes: Yes (active), No (inactive)

| entry_smiles | label |
| --- | --- |
| COc1ccc(NC(=O)O/N=C(/N)c2ccc(Oc3c(Cl)cncc3Cl)cc2)cc1 | No |
| O=C(CCN1CCCCC1)c1ccc(-c2ccccc2)cc1 | No |
| O=C(NCc1ccco1)c1ccc(Oc2cc(Cl)cc(Cl)c2)o1 | No |
| CC1=CC(=O)C(CCOCCC2=CC(=O)C(C)=CC2=O)=CC1=O | Yes |
| N#Cc1c(Cl)c(Cl)c(Cl)c(Cl)c1C#N | Yes |
| NC(N)=Nc1nc(-c2cc(Cl)sc2Cl)cs1 | No |
